Can you tell me IC50 for the items I'm about to list?
Answer in nM, number only, no unit symbol.

GET /values?readout=IC50&system=human lung cancer strain NCI-H441&item= CCC[C@H]1C(=O)N[C@@H]([C@@H](C)CC)C(=O)N(C2CC2)CC(=O)N(C)[C@H]2C/C=C\CCN(C2=O)[C@@H](Cc2ccc(C)cc2)C(=O)N(C)CC(=O)N[C@@H](CCc2ccc(Cl)c(Cl)c2)C(=O)N2C[C@H](OCC)C[C@H]2C(=O)NC2(CC(C)(C)C2)C(=O)N(C)[C@@H](C2CCCC2)C(=O)N(C)[C@H](C(=O)N(C)C)CC(=O)N1C;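 note: cell proliferation inhibition after four days measured by CellTiter-Glo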
103

GET /values?readout=IC50&system=human lung cancer strain NCI-H441&item= CCC[C@H]1C(=O)N[C@@H]([C@@H](C)CC)C(=O)N(C)CC(=O)N(C)[C@H]2C/C=C\CCN(C2=O)[C@@H](Cc2ccc(C)cc2)C(=O)N(C)CC(=O)N[C@@H](CCc2cc(F)c(C(F)(F)F)c(F)c2)C(=O)N2C[C@H](OCC)C[C@H]2C(=O)NC2(CC(C)(C)C2)C(=O)N(C)[C@@H](CC2CCC2)C(=O)N(C)[C@H](C(=O)N(C)C)CC(=O)N1C;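 note: cell proliferation inhibition after four days measured by CellTiter-Glo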
39.3

* * *

molecular target: GDP-bound KRAS wild-type protein (Homo sapiens, UniProt P01116); experiment: Binding to KRAS by surface plasmon resonance (SPR), Single Cycle Kinetics; details: SPR Single Cycle Kinetics, GDP-bound KRAS wild-type protein, 1:1 binding model; read-out: KRAS KD
Sequence (P01116 whole entry): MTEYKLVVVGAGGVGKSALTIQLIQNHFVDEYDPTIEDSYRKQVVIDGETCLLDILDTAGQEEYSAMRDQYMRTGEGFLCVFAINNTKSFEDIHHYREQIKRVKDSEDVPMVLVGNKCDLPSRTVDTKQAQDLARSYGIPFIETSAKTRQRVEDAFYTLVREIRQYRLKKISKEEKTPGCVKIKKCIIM
*1 amine or outer side, *2 acyl side, *3 side chain or, on linkers, in order; H or OH if unused. Where a SMILES comes first, the peptide text is derived from it. Bridges are numbered along the chain shown (N, C = ends). [ ]: non-standard residue; d: D form. The star is where a group is joined. hPhe(3-Cl-4-CF3) = N[C@@H](CCc1ccc(C(F)(F)F)c(Cl)c1)C(=O)O; X32 = COCCN([C@@H](Cc1ccc(C(F)(F)F)cc1)C(=O)[*:2])[*:1]; NPrPhe(4-CF3) = CCCN[C@@H](Cc1ccc(C(F)(F)F)cc1)C(=O)O; X53 = C#CCN([C@@H](Cc1ccc(C)cc1)C(=O)[*:2])[*:1]; NMeGly(cPent) = CN[C@H](C(=O)O)C1CCCC1; NMeD = CN[C@@H](CC(=O)O)C(=O)O; X1 = O=C(CN(CC(F)F)[*:1])[*:2]; NMeL = CN[C@@H](CC(C)C)C(=O)O; Morpholide = C1CN(*)CCO1; NMeA = CN[C@@H](C)C(=O)O; Ac5c = NC1(C(=O)O)CCCC1; Aze = O=C(O)[C@@H]1CCN1; NEtG = CCNCC(=O)O; Sar = CNCC(=O)O
Can you tell me log10(Kd) for the items I'm about to list?
Recall that a logarithmic scale is used here: each number is log10 of Kd in nM.

Please look up its log10(Kd): C#CCN1C(=O)[C@@H]2CCN2C(=O)[C@H](C)N(C)C(=O)[C@H]([C@@H](C)CC)NC(=O)[C@H](CC(C)C)N(C)C(=O)C[C@@H](C(=O)N2CCOCC2)N(C)C(=O)[C@H](C2CCCC2)N(C)C(=O)C2(CCCC2)NC(=O)[C@@H]2CCCN2C(=O)[C@H](CCc2ccc(C(F)(F)F)c(Cl)c2)NC(=O)CN(C)C(=O)[C@@H]1Cc1ccc(C)cc1 [PP0090] ([NMeL]I[NMeA][Aze][X53][Sar][hPhe(3-Cl-4-CF3)]P[Ac5c][NMeGly(cPent)][NMeD]-Morpholide; lactam N-11)
-1.08

Please look up its log10(Kd): CCO[C@@H]1C[C@H]2C(=O)NC3(CCC3)C(=O)N(C)[C@@H](C3CCCC3)C(=O)N(C)[C@H](C(=O)N3CCOCC3)CC(=O)N(C)[C@@H](CC(C)C)C(=O)N[C@@H]([C@@H](C)CC)C(=O)N(C)CC(=O)N(C)[C@H]3CCCCCN(C3=O)[C@@H](Cc3ccc(C(F)(F)F)cc3)C(=O)N(C)CC(=O)N[C@@H](CCc3cc(F)c(C(F)(F)F)c(F)c3)C(=O)N2C1 [PP0467]
-0.23

Please look up its log10(Kd): CCC(CC)[C@H]1C(=O)N(C)[C@H](C(=O)N(C)C)CC(=O)N(C)[C@@H](COC)C(=O)N[C@@H]([C@@H](C)CC)C(=O)N2CCC[C@H]2C(=O)N(C)[C@H]2C/C=C\CCN(C2=O)[C@@H](Cc2ccc(C(F)(F)F)cc2)C(=O)N(C)CC(=O)N[C@@H](CCc2ccc(Cl)c(Cl)c2)C(=O)N2C[C@H](OC3CCC3)C[C@H]2C(=O)NC2(CC(C)(C)C2)C(=O)N1C [PP2645]
0.04

Please look up its log10(Kd): CCCN1C(=O)CN(C)C(=O)CN(CC)C(=O)[C@H]([C@@H](C)CC)NC(=O)[C@H](CC(C)C)N(C)C(=O)C[C@@H](C(=O)N2CCOCC2)N(C)C(=O)[C@H](C2CCCC2)N(C)C(=O)C2(CCCC2)NC(=O)CN(C)C(=O)[C@H](CCc2ccc(C(F)(F)F)c(Cl)c2)NC(=O)CN(C)C(=O)[C@@H]1Cc1ccc(C(F)(F)F)cc1 [PP0300] ([NMeL]I[NEtG][Sar][NPrPhe(4-CF3)][Sar][hPhe(3-Cl-4-CF3)][Sar][Ac5c][NMeGly(cPent)][NMeD]-Morpholide; lactam N-11)
0.15

Please look up its log10(Kd): CC[C@H](C)[C@@H]1NC(=O)[C@H](CC(C)C)N(C)C(=O)C[C@@H](C(=O)N2CCOCC2)N(C)C(=O)[C@H](C2CCCC2)N(C)C(=O)C2(CCCC2)NC(=O)[C@@H]2CCCN2C(=O)[C@H](CCc2ccc(C(F)(F)F)c(Cl)c2)NC(=O)CN(C)C(=O)[C@H](Cc2ccc(OC)cc2)N2CCCC[C@@H](C2=O)N(C)C(=O)CN(C)C1=O [PP0534]
-0.80

Please look up its log10(Kd): CCC[C@H]1C(=O)N[C@@H](CC(C)C)C(=O)N2C[C@@H](OC)C[C@H]2C(=O)N(C)[C@H]2C/C=C\CCN(C2=O)[C@@H](Cc2ccc(C)cc2)C(=O)N(C)CC(=O)N[C@@H](CCc2ccc(C(F)(F)F)c(OC)c2)C(=O)N2C[C@H](OCC)C[C@H]2C(=O)NC2(CCC2)C(=O)N(C)[C@@H](C2CCCC2)C(=O)N(C)[C@H](C(=O)N(C)C)CC(=O)N1C [PP2548]
0.89

Please look up its log10(Kd): CC[C@H](C)[C@@H]1NC(=O)[C@H](CC(C)C)N(C)C(=O)C[C@@H](C(=O)N2CCOCC2)N(C)C(=O)[C@H](C2CCCC2)N(C)C(=O)C2(CCCC2)NC(=O)[C@@H]2CCCN2C(=O)[C@H](CCc2ccc(C(F)(F)F)c(Cl)c2)NC(=O)CN(C)C(=O)[C@H](Cc2ccc(C(F)(F)F)cc2)N(CCOC)C(=O)[C@@H]2CCN2C(=O)[C@H](C)N(C)C1=O [PP0118] ([NMeL]I[NMeA][Aze][X32][Sar][hPhe(3-Cl-4-CF3)]P[Ac5c][NMeGly(cPent)][NMeD]-Morpholide; lactam N-11)
-0.68

Please look up its log10(Kd): CCC[C@H]1C(=O)N[C@@H]([C@@H](C)CC)C(=O)N(C)CC(=O)N(C)[C@H]2C/C=C\CCN(C2=O)[C@@H](Cc2ccc(C(F)(F)F)cc2)C(=O)N(C)CC(=O)N[C@@H](CCc2ccc(CC)c(Cl)c2)C(=O)N2C[C@H](OCC)C[C@H]2C(=O)NC2(CC(C)(C)C2)C(=O)N(C)[C@@H](C(CC)CC)C(=O)N(C)[C@H](C(=O)N(C)C)CC(=O)N1C [PP2777]
0.38

Please look up its log10(Kd): CC[C@H](C)[C@@H]1NC(=O)[C@H](CC(C)C)N(C)C(=O)C[C@@H](C(=O)N2CCOCC2)N(C)C(=O)[C@H](C2CCCC2)N(C)C(=O)C2(CCCC2)NC(=O)[C@@H]2CCCN2C(=O)[C@H](CCc2ccc(C(F)(F)F)c(Cl)c2)NC(=O)CN(C)C(=O)[C@H](Cc2ccc(OC(F)(F)F)cc2)N2CC=CC[C@@H](C2=O)N(C)C(=O)CN(C)C1=O [PP0537]
0.76

Please look up its log10(Kd): CCCN1C(=O)CN(C)C(=O)CN(CC(F)F)C(=O)[C@H]([C@@H](C)CC)NC(=O)[C@H](CC(C)C)N(C)C(=O)C[C@@H](C(=O)N2CCOCC2)N(C)C(=O)[C@H](C2CCCC2)N(C)C(=O)C2(CCCC2)NC(=O)[C@@H]2CCCN2C(=O)[C@H](CCc2ccc(C(F)(F)F)c(Cl)c2)NC(=O)CN(C)C(=O)[C@@H]1Cc1ccc(C(F)(F)F)cc1 [PP0752] ([NMeL]I[X1][Sar][NPrPhe(4-CF3)][Sar][hPhe(3-Cl-4-CF3)]P[Ac5c][NMeGly(cPent)][NMeD]-Morpholide; lactam N-11)
-0.27

meta.source: patent US20240158446A1
